Target desc: Androgen receptor (Homo sapiens, UniProt P10275)
Sequence (P10275 whole entry): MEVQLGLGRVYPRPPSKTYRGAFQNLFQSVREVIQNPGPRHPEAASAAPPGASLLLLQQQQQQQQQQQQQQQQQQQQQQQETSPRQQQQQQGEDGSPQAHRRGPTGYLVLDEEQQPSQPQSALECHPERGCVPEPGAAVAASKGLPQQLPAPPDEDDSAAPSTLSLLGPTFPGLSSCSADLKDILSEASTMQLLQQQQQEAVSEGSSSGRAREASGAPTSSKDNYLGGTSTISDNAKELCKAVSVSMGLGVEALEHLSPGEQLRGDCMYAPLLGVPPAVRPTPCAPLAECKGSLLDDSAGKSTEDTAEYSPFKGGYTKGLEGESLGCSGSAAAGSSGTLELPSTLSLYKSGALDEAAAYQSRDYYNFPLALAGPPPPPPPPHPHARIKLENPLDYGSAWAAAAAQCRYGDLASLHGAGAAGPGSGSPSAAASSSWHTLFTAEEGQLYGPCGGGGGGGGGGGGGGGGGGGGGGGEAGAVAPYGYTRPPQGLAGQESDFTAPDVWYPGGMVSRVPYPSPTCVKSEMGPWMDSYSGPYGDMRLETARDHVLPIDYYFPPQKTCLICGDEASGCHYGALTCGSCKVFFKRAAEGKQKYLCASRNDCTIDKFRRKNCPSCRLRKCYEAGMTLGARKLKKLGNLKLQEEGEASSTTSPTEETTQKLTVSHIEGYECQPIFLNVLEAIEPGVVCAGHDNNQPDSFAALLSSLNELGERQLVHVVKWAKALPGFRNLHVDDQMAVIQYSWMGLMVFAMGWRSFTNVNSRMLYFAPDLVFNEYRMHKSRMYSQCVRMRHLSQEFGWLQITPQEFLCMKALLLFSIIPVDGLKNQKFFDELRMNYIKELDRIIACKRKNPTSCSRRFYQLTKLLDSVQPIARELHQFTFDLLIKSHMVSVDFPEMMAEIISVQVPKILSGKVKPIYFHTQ
Protocol summary: Inhibition of AR transcriptional activity in human LNCaP cells harboring ARR2PB-eGFP incubated for 72 hrs by fluorescence assay
Type: cell-based

{"columns": ["Compound", "IC50"],
 "data": [
  ["O=c1cc(C(F)(F)F)c2ccc(OCc3ccc4ccccc4c3)cc2o1", "> 50 µM"],
  ["O=C(Nc1ccc2c(C(F)(F)F)cc(=O)oc2c1)c1ccccc1", "> 50 µM"],
  ["CCOC(=O)C(CC)Oc1ccc2c(C(F)(F)F)cc(=O)oc2c1 (stereo unspecified)", "> 50 µM"],
  ["O=c1cc(C(F)(F)F)c2ccc(OCc3ccc(-c4ccccc4)cc3)cc2o1", "> 50 µM"],
  ["NC(=O)c1ccc(COc2ccc3c(C(F)(F)F)cc(=O)oc3c2)cc1", "> 50 µM"],
  ["C[C@H](Oc1cc(Cl)ccc1Cl)C(=O)Nc1ccc2c(C(F)(F)F)cc(=O)oc2c1", "> 50 µM"],
  ["O=C(Nc1ccc2c(C(F)(F)F)cc(=O)oc2c1)c1ccccc1Cl", "> 50 µM"],
  ["O=c1cc(C(F)(F)F)c2ccc(OCc3ccc(Br)cc3)cc2o1", "0.17 µM"],
  ["Cn1cc(C(=O)Nc2ccc3c(C(F)(F)F)cc(=O)oc3c2)c(I)n1", "> 50 µM"],
  ["O=C(c1ccccc1)c1ccc(/N=C/c2ccccc2O)cc1", "> 50 µM"],
  ["Cn1cc(C(=O)Nc2ccc3c(C(F)(F)F)cc(=O)oc3c2)c(Br)n1", "> 50 µM"],
  ["O=c1cc(C(F)(F)F)c2ccc(OCc3c(F)cccc3Cl)cc2o1", "0.78 µM"],
  ["Cn1cc(C(=O)Nc2ccc3c(C(F)(F)F)cc(=O)oc3c2)cn1", "> 50 µM"],
  ["CC(C)c1ccc(COc2ccc3c(C(F)(F)F)cc(=O)oc3c2)cc1", "9.26 µM"],
  ["Cc1ccc(/N=C/c2ccccc2O)cc1Br", "> 50 µM"],
  ["COc1ccc(COc2ccc3c(C(F)(F)F)cc(=O)oc3c2)cc1", "1.62 µM"]
]}

These data points were gathered from ChEMBL document CHEMBL5055679.
